METHOD_DESCRIPTION: NCI Yeast Anticancer Drug Screen. Data for the mlh1 rad18 strain (AID 175)
TEST_CONTEXT: S. cerevisiae mlh1 rad18 strain growth inhibition; at 50.0 µM (retest, dose inferred, filed as 5.0); hits give high values
The panel holds about 79,000 compounds, 15% with a hit somewhere; the sample as a whole holds those more often.
TEST_READOUT: growth inhibition (%)
Numbers only, in %.

Below, 2 compounds whose answers are already recorded.
# COMPOUND, UNITS_OF_MEASURE, growth inhibition
rows = [
    ("CC(C)c1ccc(/C=C(\\NC(=O)c2ccccc2)c2nc3ccccc3[nH]2)cc1", "%", 62),
    ("Nc1ccccc1C(=O)/C=C/c1ccccc1", "%", 84),
]

Consider the following items and state reported growth inhibition for each.
1. CCCCCCCCCCCCCCCC(=O)NCC[N+](CC)(CC)Cc1ccc(C[N+](CC)(CC)CCNC(=O)CCCCCCCCCCCCCCC)cc1
2. N#Cc1c(-c2ccc([N+](=O)[O-])cc2)c(C#N)c(=O)n(NS(=O)(=O)c2ccccc2)c1S
3. CCCCCC(CCCCC)OC(=O)CCN(CCCCC)CCCCC
4. [Cu+2].[O-]/N=C/c1cccc(O)c1[O-].[O-]/N=C/c1cccc(O)c1[O-]
5. O=C1CCSC(=S)N1c1ccc(Br)c(Cl)c1
6. CC[C@@H]1O[C@@H]([C@@H]2CC[C@](O)([C@]3(C)CC[C@@H]([C@@H](C)[C@@]4(O)CC[C@H](C)[C@@H](C[C@@]5(O)O[C@@H]([C@@H](C)[C@H](O)C[C@H]6CC[C@H](C)[C@@H]([C@@H](C)C(=O)O)O6)CC[C@@H]5C)O4)O3)O2)CC[C@@]1(C)O
7. CC(NNC(=S)N1CCCC1)c1cc2ccccc2cn1 (stereo not given)
8. C/C=C\C(/C=C/C)(C(=O)OCCN(C)C)C(/C=C\C)(/C=C/C)C(=O)OCCN(C)C (stereo not given)

// result
99
81
94
98
99
93
98
97
